Biological target: T1, human CD4 (human, UniProt P01730 26-458)
T1 construct: whole, on cells; also called hCD4
Experiment: FACS, clonal hybridoma supernatant on human PBMCs
Answer each item with its documented gMFI of CD4+.
Numbers only, in gMFI.

Sample answers from the record:
75110_02E22A (antibody, V domains shown, Tested as clonal hybridoma supernatant (AlivaMab Mouse Kappa; anti-mouse Fc detection); also called Sib7.1) VH: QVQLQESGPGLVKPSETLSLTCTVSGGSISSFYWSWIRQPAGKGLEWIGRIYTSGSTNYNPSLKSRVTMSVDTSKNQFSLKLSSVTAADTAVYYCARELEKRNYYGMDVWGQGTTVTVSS VL: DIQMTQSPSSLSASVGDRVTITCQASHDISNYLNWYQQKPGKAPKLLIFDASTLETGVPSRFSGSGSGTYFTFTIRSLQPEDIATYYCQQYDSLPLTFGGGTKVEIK = 268000
75110_03D16A (antibody, V domains shown, Tested as clonal hybridoma supernatant (AlivaMab Mouse Kappa; anti-mouse Fc detection); also called Sib2.5) VH: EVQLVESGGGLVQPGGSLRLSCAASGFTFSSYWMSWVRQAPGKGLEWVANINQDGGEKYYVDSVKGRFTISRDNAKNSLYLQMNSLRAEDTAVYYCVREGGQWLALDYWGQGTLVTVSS VL: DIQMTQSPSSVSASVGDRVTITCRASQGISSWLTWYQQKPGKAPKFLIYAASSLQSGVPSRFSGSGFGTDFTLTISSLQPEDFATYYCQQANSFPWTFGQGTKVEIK = 207000

The record that follows has no gMFI of CD4+ shown yet.
Lookup: Note gMFI of CD4+ for the binder shown: 75110_01J09A (antibody, V domains shown, Tested as clonal hybridoma supernatant (AlivaMab Mouse Kappa; anti-mouse Fc detection); also called Sib2.2) VH: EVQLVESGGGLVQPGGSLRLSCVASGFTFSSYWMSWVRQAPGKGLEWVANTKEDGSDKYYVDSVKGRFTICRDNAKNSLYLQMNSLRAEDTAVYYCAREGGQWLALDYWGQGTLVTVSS VL: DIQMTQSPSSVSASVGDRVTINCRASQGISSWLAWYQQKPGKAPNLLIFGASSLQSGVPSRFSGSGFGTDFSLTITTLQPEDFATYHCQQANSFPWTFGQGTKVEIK
Found: 143000
